Where do the numbers come from? From paper PMC10397247.

Molecular target: T1, P2-AA
T1 chain: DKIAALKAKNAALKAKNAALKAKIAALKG
Experiment: two-hybrid library CCmax;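 also: natural log of median RNA to DNA barcode read ratio; higher means stronger binding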
Conditions: mean of both orientations
This section presents binders with their documented interaction score values.
Enter the number alone.

These solved cases illustrate the format of a correct answer.
- binder: "DEIAALEAWNAALWAENAALEAEIAALEG [P1-AA-1HGe-W]"
  interaction score: 1.7
- binder: "ASIRRLEQEVNQERSRMAYLQTLLAKIEQ [4H_BCR]"
  interaction score: -2.08
- binder: "DEIAALEAQNAALQAQNAALQAEIAALEG [P1-AA-12HGe-Q]"
  interaction score: 1.92

**Query** Determine from records and report interaction score for DENAALEAKIAALKAKNAALKAEIAALEG [4H1401-AA]
**Result** -1.76

**Query** Give the reported interaction score for this binder. DEIAALEAQNAALQAENAALEAEIAALEG [P1-AA-1HGe-Q]
**Result** 1.75

**Query** Determine its reported interaction score: DEIAALEAEIAALEAEIAALEAEIAALEG [P1-AA-12HAA-I]
**Result** 1.8

**Query** Read the entry DEIAALEAYNAALYAYNAALYAEIAALEG [P1-AA-12HGe-Y] and write its reported interaction score.
**Result** -0.194
